B1: Homeobox protein SIX3, residues 212 to 262; numbered along this chain, O95343 (parent)
chain: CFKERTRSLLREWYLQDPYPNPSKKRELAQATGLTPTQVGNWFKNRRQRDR

- Variants of: B1
- TEST_DESCRIPTION: abundance fitness (aPCA) (normalised: wild type 0, dead -1); higher = more abundant; growth selection in yeast, the domain comes from the species named
- EXPERIMENTAL_CONTEXT: Homo sapiens
Returns one of condition met or condition not met; condition met when abundance fitness is >= -0.5.

Worked cases, answers included:
>>> df
   alteration     discrete_label
0        L34A  condition not met
1        A31H      condition met
2        L28V      condition met
3        Q38D  condition not met
4        G40E      condition met

Input: Decide: is the reported value of abundance fitness for S23A equal to or greater than -0.5?
Output: condition met

Input: Decide: is the reported value of abundance fitness for P22K equal to or greater than -0.5?
Output: condition met
